# tested.system: recombinant HIV 1 RT wild type (Human immunodeficiency virus type 1 group M subtype B)
# assay.procedure: biochemical
# Parameters: The mutated and native forms of RT were isolated as previously described; made in house
# particulars: IC50 on template prA, RT type wt, RT amount 100 fg; first strand synthesis, 2 hours
reported.property: pIC50
Give bare numbers, as −log10 of the molar value.

What measured pIC50 is associated with O=C(O)P(=O)(O)O [Foscarnet] on recombinant HIV 1 RT wild type (Human immunodeficiency virus type 1 group M subtype B)? 6.15

---

# tested.system: recombinant HIV 1 RT wild type (Human immunodeficiency virus type 1 group M subtype B)
# assay.procedure: biochemical
# Design: The mutated and native forms of RT were isolated as previously described; made in house
# particulars: IC50 on template prA, RT type wt, RT amount 20 fg; first strand synthesis, 2 hours
reported.property: pIC50
One number for each entry, as −log10 of the molar value.

May I ask what pIC50 has been recorded for O=C(O)P(=O)(O)O [Foscarnet] ? 6.22
